Origin of values: patent EP4785956A2

Collected kon values appear next to each entry.
- target.under.test: T1, recombinant cynomolgus monkey C5 (cynomolgus monkey, UniProt P01031 19-1676 (human entry), limits assumed)
- T1 construct: also called cynoC5
- T1 chain: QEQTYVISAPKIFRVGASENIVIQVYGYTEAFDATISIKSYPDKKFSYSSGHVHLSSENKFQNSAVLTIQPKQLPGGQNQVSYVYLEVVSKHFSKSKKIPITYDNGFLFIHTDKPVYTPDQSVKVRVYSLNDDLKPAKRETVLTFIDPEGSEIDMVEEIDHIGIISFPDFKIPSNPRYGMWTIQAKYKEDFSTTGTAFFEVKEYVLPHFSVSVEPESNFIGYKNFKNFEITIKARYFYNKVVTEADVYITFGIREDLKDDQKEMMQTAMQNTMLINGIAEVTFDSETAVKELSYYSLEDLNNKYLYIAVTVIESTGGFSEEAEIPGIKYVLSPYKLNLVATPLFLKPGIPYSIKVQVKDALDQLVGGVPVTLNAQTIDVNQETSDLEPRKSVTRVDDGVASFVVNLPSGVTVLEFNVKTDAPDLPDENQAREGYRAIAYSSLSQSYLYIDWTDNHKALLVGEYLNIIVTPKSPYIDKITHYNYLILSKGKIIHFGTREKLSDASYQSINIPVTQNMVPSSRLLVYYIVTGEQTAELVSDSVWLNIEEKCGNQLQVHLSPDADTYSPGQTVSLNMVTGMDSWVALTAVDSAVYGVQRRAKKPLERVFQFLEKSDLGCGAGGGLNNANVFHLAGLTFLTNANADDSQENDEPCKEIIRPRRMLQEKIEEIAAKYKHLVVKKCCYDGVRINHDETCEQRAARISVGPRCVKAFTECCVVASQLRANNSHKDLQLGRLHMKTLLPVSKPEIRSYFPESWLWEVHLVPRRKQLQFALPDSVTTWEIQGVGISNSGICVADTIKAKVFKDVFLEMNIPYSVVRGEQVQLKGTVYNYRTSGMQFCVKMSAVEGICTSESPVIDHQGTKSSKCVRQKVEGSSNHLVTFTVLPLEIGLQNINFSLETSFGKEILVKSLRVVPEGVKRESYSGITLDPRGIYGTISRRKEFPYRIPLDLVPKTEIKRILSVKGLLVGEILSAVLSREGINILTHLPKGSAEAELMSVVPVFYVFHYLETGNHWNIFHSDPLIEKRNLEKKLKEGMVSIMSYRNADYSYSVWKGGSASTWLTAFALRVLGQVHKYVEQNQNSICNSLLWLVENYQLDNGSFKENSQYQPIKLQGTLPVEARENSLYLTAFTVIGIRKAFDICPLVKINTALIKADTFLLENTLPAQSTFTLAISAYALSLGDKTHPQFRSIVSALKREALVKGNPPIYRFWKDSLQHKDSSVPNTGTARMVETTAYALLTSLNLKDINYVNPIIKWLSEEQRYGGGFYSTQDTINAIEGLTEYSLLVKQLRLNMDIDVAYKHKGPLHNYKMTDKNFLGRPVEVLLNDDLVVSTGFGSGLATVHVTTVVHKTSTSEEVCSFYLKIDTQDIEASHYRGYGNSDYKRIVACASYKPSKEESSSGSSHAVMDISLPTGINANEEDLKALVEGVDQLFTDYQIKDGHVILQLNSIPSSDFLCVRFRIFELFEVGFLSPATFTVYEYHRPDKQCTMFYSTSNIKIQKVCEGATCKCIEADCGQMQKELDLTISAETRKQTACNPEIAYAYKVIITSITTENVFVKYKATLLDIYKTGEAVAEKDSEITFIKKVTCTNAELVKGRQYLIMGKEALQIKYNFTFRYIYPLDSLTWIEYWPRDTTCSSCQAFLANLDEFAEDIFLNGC
- test.description: SPR (BIACORE T200), antibody captured by ProA/G, recombinant cynoC5 injected, 37 degrees C, pH7.4
Could you give me the number in M⁻¹ s⁻¹? Just the number is fine.

Use the examples below as a reference point.
{"columns": ["binder", "kon / M⁻¹ s⁻¹"],
 "data": [
  ["CFA0305 (antibody, V domains shown) VH: QSLEESGGDLVKPGASLAVTCTASGFSSSSSYYMCWVRQAPGKGLEWIGCIYTGSGATYYASWAKGRFTISKTSSTTVTLQMTSLTVADTATYFCASDGGYVTPTHAMYLWGPGTLVTVSS VL: DVVMTQTPASVSAAVGGTVTIKCQASQNIGSDLAWYQQKPGQPPRLLIYGASKLASGVSSRFSGSGSGKEFTLTISDLECADAVTYYCQCTFVGSSYGNAFGGGTEVVVK", 12100],
  ["CFA0599 (antibody, V domains shown) VH: QSVEESGGRLVTPGTPLTLTCTVSGLSLSDNTMTWVRQAPGKGLEWIGIISFGGDAYYASWAKGRFPISKTSTTVDLRITSPTTEDTATYFCARVGAGNIFWYFDLWGPGTLVTVSS VL: AYDMTQTPASVEVSVGGTVTIKCQASESIYSALAWYQQKPGQPPKLLIYSASTLASGVPSRFKGSGSGTEYTLTISDLECADAATYYCQQYYSSTNVHNSFGGGTTVVVE", 542000],
  ["CFA0675 (antibody, V domains shown) VH: QSVEESGGRLVTPGTPLTLTCTVSGFSLSTYAMGWVRQAPGKGLEWIGTIDTGDNSFYANWAKGRFTISRTSTTVDLKITSPTAEDTATYFCARNDGSVYNLFNLWGPGTLVTVSS VL: DVVMTQTPASVSAAVGGTVTIKCQASENIYSALSWYQQKPGLRPRLLIYYASTLASGVPSRFKGSRSGTEFTLTISDLECADAASYYCQQYYDINSVDNTFGGGTKVVVE", 294000],
  ["CFA0501 (antibody, V domains shown) VH: QSVEESGGRLVTPGTPLTLTCTASGFSLSSYYMNWVRQAPGKGLEWIGMIYGSGATYYASWAKGRFTISKTSSTTVDLKMTSLTTEDTATYFCARQIYSGDNNDNFWGPGTLVTVSS VL: AYDMTQTPASVEVAVGGTVTINCQASESISNWLAWYQQKPGQRPKLLIYRASTLASGVSSRFKGSGSGTQFTLTISGVECDDAATYYCQQDYSSSNVDNTFGGGTKVVVE", 266000],
  ["CFA0538 (antibody, V domains shown) VH: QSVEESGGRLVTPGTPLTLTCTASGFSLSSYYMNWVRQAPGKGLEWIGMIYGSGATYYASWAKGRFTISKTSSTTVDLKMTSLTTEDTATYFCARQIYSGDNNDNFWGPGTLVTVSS VL: AYDMTQTPASVEVAVGGTVTINCQASESISNWLAWYQQKPGQRPKLLIYRASTLASGVSSRFKGSGSGTQFTLTISGVECDDAATYYCQQDYSSSNVDNTFGGGTTVVVE", 305000]
]}

From here, focus on the item given below.
Query: kon for CFA0307 (antibody, V domains shown) VH: QSLEESGGGLVKPGASLTLTCKASGIDFSNFYYICWVRQAPGKGLDLIACIYTVSGYTYYASWAKGRLTISKTSSTTVTLQMTSLTAADTATYFCARDLHAGITNLWGPGTLVTVSS VL: AIEMTQTPFSVSAAVGGTVTIKCQASQNIYSNLAWYQQKPGQRPKLLIYGASNLESGVPSRFKGSGSGTEYTLTISDLECADAATYYCLQGYSYSNVDDAFGGGTEVVVK ?
Result: 290000
